# EXPERIMENTAL CONDITIONS: in n-butanol, 303.15 K
MEASURED PROPERTY: solubility (mole fraction)

              chem_smiles  test_result
0  O=C(O)COc1ccc(Cl)cc1Cl        0.146

---

# EXPERIMENTAL CONDITIONS: in MTBE, 298.15 K
MEASURED PROPERTY: solubility (mole fraction)

>>> print(df.to_string())
              chem_smiles  test_result
0  O=C(O)COc1ccc(Cl)cc1Cl        0.126

---

# EXPERIMENTAL CONDITIONS: in isobutyl acetate, 308.15 K
MEASURED PROPERTY: solubility (mole fraction)

>>> df
              chem_smiles           measured_property  test_result
0  O=C(O)COc1ccc(Cl)cc1Cl  solubility (mole fraction)       0.0846
